# Test system: UO-31
# METHOD_SUMMARY: NCI tumour cell line growth inhibition, 48 h
Active and inactive are the calls of the source. Rule as the data show it: active = GI50 up to about 1.1 µM and inactive = higher.
Classes used: 1 (yes) for active, 0 (no) for inactive

COMPOUND	LABEL_VALUE
CCOC(=O)N[C@H]1CCc2cc(OC)c(OC)c(OC)c2-c2ccc(SC)c(=O)cc21	1 (yes)
COC(=O)c1ccc(C)cc1CC1Cc2cc(C)ccc2C1=O (stereo unspecified)	0 (no)
CC(CN(C)C)C(O)(c1ccccc1)c1ccccc1 (stereo unspecified)	0 (no)
Cn1nnc2c(C(N)=O)ncn2c1=O [TEMOZOLOMIDE]	0 (no)
CC(=O)OCCOCNC(=S)N/N=C/c1cc(Br)cs1	0 (no)
Cc1cn(C2CC(O)C(Cn3nncc3Cn3ncc(=O)[nH]c3=O)O2)c(=O)[nH]c1=O (stereo unspecified)	0 (no)
COC1(OC)N=C(N)C2(C#N)C(C)=C3NCN(C)N=C3C12C#N (stereo unspecified)	0 (no)
COC(=O)C12C(=O)CC3CCC1C32C(=O)OC (stereo unspecified)	0 (no)
CC1OC(OC2C(CO)OC(O[C@H]3CC[C@@]4(C)C(=CC[C@H]5[C@@H]6C[C@@H]7O[C@](O)(CC[C@H](CO)COC8OC(CO)C(O)C(O)C8O)[C@@H](C)[C@@H]7[C@@]6(C)CC[C@@H]54)C3)C(OC3OC(C)C(O)C(O)C3O)C2O)C(O)C(O)C1O (stereo partly specified)	0 (no)
COc1ccc2nc(-c3ccccc3)cc(OCC(=O)O)c2c1	0 (no)
CC1=[N+]([O-])C(C)(C)N(O)C1(C)C	0 (no)
COc1c(C=O)c2c(c(OC)c1OC)-c1ccc(OC)c(=O)cc1[C@@H](NC(C)=O)CC2	0 (no)
CN(C)CCNC(=O)c1cccc2nc3c(Cl)cccc3nc12	0 (no)
Cc1[nH]c2ccccc2c1-c1n[nH]c(=O)c2ccccc12	0 (no)
CC(=O)Nc1ccc2nc(N)n[n+]([O-])c2c1	0 (no)
CCCCCCCCCCCCCCCCCCNc1ccn(C2OC(CO)C(O)C2O)c(=O)n1 (stereo unspecified)	0 (no)
COC(=O)/C=C1/OC(c2ccc(C)cc2C)=CC1=O	0 (no)
CCCCCCCCCCCCC/C=C1\C[C@H](O)COC1=O	0 (no)
NC(CCP(=O)(O)O)C(=O)O (stereo unspecified)	0 (no)
CC1C=CC(C)C2(O)C(=O)NC(O)C12 (stereo unspecified)	0 (no)
O=C(CCc1ccccc1)NS(=O)(=O)c1ccccc1	0 (no)
